Where do these numbers come from? They come from ChEMBL document CHEMBL1124186.

The following molecules are shown together with reported MIC values.
# Test system: Staphylococcus epidermidis
# TEST PROTOCOL: In vitro antimicrobial activity against Staphylococcus epidermidis EPI1
# Format: functional
Respond numerically; units are µg/mL and should not be typed.

query: For the molecule shown here, CC[C@H]1OC(=O)C[C@@H](O)[C@H](C)[C@@H](O[C@@H]2O[C@H](C)[C@@H](O)[C@H](N(C)C)[C@H]2O)[C@@H](CC=O)C[C@@H](C)C(=O)/C=C/C(C)=C/[C@@H]1CO[C@@H]1O[C@H](C)[C@@H](O)[C@@H](OC)[C@H]1OC , give the reported MIC.
result: 0.5

New cases:
query: For the molecule shown here, CC[C@H]1OC(=O)C[C@@H](O)[C@H](C)[C@@H](O[C@@H]2O[C@H](C)[C@@H](O[C@H]3C[C@@](C)(O)[C@@H](O)[C@H](C)O3)[C@H](N(C)C)[C@H]2O)[C@@H](CCOc2ccccc2)C[C@@H](C)C(=O)/C=C/C(C)=C/[C@@H]1CO[C@@H]1O[C@H](C)[C@@H](O)[C@@H](O)[C@H]1OC , give the reported MIC.
result: 2

====

The following molecules are shown together with reported log10 of MIC values.
# Tested on: Staphylococcus epidermidis
# TEST PROTOCOL: In vitro antimicrobial activity against Staphylococcus epidermidis EPI1
# Format: functional
# values: log10(MIC), units µg/mL

query: For the molecule shown here, CC[C@H]1OC(=O)C[C@@H](O)[C@H](C)[C@@H](O[C@@H]2O[C@H](C)[C@@H](O)[C@H](N(C)C)[C@H]2O)[C@@H](CCO)C[C@@H](C)C(=O)/C=C/C(C)=C/[C@@H]1C , give the reported log10 of MIC.
result: 1.20

query: What about this molecule? CCOC(=O)c1ccc(OCC[C@H]2C[C@@H](C)C(=O)/C=C/C(C)=C/[C@H](CO[C@@H]3O[C@H](C)[C@@H](O)[C@@H](OC)[C@H]3OC)[C@@H](CC)OC(=O)C[C@@H](O)[C@H](C)[C@H]2O[C@@H]2O[C@H](C)[C@@H](O)[C@H](N(C)C)[C@H]2O)cc1
result: -0.30

query: What about this molecule? CC[C@H]1OC(=O)C[C@@H](O)[C@H](C)[C@@H](O[C@@H]2O[C@H](C)[C@@H](O[C@H]3C[C@@](C)(O)[C@@H](O)[C@H](C)O3)[C@H](N(C)C)[C@H]2O)[C@@H](CCF)C[C@@H](C)C(=O)/C=C/C(C)=C/[C@@H]1CO[C@@H]1O[C@H](C)[C@@H](O)[C@@H](OC)[C@H]1OC
result: 0.00

New cases:
query: For the molecule shown here, CCOC(=O)NN(CC[C@H]1C[C@@H](C)C(=O)/C=C/C(C)=C/[C@H](CO[C@@H]2O[C@H](C)[C@@H](O)[C@@H](OC)[C@H]2OC)[C@@H](CC)OC(=O)C[C@@H](O)[C@H](C)[C@H]1O[C@@H]1O[C@H](C)[C@@H](O)[C@H](N(C)C)[C@H]1O)C(=O)OCC , give the reported log10 of MIC.
result: -0.30

query: What about this molecule? CC[C@H]1C[C@@H](C)C(=O)/C=C/C(C)=C/[C@H](CO[C@@H]2O[C@H](C)[C@@H](O)[C@@H](OC)[C@H]2OC)[C@@H](CC)OC(=O)C[C@@H](O)[C@H](C)[C@H]1O[C@@H]1O[C@H](C)[C@@H](O)[C@H](N(C)C)[C@H]1O
result: -0.60

query: What about this molecule? CC[C@H]1OC(=O)C[C@@H](O)[C@H](C)[C@@H](O[C@@H]2O[C@H](C)[C@@H](O[C@H]3C[C@@](C)(O)[C@@H](O)[C@H](C)O3)[C@H](N(C)C)[C@H]2O)[C@@H](CCOc2ccc(OC)cc2)C[C@@H](C)C(=O)/C=C/C(C)=C/[C@@H]1CO[C@@H]1O[C@H](C)[C@@H](O)[C@@H](OC)[C@H]1OC
result: 0.30

query: What about this molecule? CC[C@H]1OC(=O)C[C@@H](O)[C@H](C)[C@@H](O[C@@H]2O[C@H](C)[C@@H](O[C@H]3C[C@@](C)(O)[C@@H](O)[C@H](C)O3)[C@H](N(C)C)[C@H]2O)[C@@H](CC=O)C[C@@H](C)C(=O)/C=C/C(C)=C/[C@@H]1CO[C@@H]1O[C@H](C)[C@@H](O)[C@@H](O)[C@H]1OC
result: 0.00

query: What about this molecule? CC[C@H]1OC(=O)C[C@@H](O)[C@H](C)[C@@H](O[C@@H]2O[C@H](C)[C@@H](O)[C@H](N(C)C)[C@H]2O)[C@@H](CCSc2nnnn2C)C[C@@H](C)C(=O)/C=C/C(C)=C/[C@@H]1CO[C@@H]1O[C@H](C)[C@@H](O)[C@@H](OC)[C@H]1OC
result: -0.60

query: What about this molecule? CC[C@H]1OC(=O)C[C@@H](O)[C@H](C)[C@@H](O[C@@H]2O[C@H](C)[C@@H](O[C@H]3C[C@@](C)(O)[C@@H](O)[C@H](C)O3)[C@H](N(C)C)[C@H]2O)[C@@H](CC=O)C[C@@H](C)C(=O)/C=C/C(C)=C/[C@@H]1CO
result: 0.00

query: What about this molecule? CC[C@H]1C[C@@H](C)C(=O)/C=C/C(C)=C/[C@H](CO)[C@@H](CC)OC(=O)C[C@@H](O)[C@H](C)[C@H]1O[C@@H]1O[C@H](C)[C@@H](O)[C@H](N(C)C)[C@H]1O
result: 0.90

query: What about this molecule? CC[C@H]1OC(=O)C[C@@H](O)[C@H](C)[C@@H](O[C@@H]2O[C@H](C)[C@@H](O)[C@H](N(C)C)[C@H]2O)[C@@H](CCS(=O)(=O)c2ccc(C)cc2)C[C@@H](C)C(=O)/C=C/C(C)=C/[C@@H]1CO[C@@H]1O[C@H](C)[C@@H](O)[C@@H](OC)[C@H]1OC
result: -0.60
